# Experimental Target: interaction between p53 and MDM2 proteins (Homo sapiens)
# Test Details: HTRF assay of inhibition of the p53-MDM2 interaction (GST-MDM2 / biotinylated p53 peptide)
# Assay Conditions: recombinant GST-tagged MDM2 and biotinylated p53 peptide, bsa:0.02%
pIC50: −log10 of the molar value.
Assay Endpoint: pIC50

These recorded examples may help you get a feel for the data.
Molecule: COc1cc(OCCO)ncc1NC(=O)[C@@H]1N[C@@H](CC(C)(C)C)[C@@]2(C(=O)Nc3cc(Cl)ccc32)[C@H]1c1cccc(Cl)c1F (racemic)
pIC50: 8.15
//
Molecule: CC(C)(C)C[C@@H]1N[C@@H](C(=O)Nc2ccc(C#N)s2)[C@H](c2cccc(Cl)c2F)[C@]12C(=O)Nc1cc(Cl)ccc12 (racemic)
pIC50: 7.82
//
Molecule: COc1cc(CC(=O)O)ccc1NC(=O)[C@@H]1N[C@@H](CC(C)(C)C)[C@@]2(C(=O)Nc3cc(Cl)ccc32)[C@H]1c1cccc(Cl)c1F
pIC50: 8.30
//
Molecule: COc1cc(C(N)=O)ccc1NC(=O)[C@@H]1N[C@@H](CC(C)(C)C)[C@@]2(C(=O)Nc3cc(Cl)ccc32)[C@H]1c1cccc(Cl)c1F (racemic) [Example 59]
pIC50: 7.85

(I) CC(C)(C)C[C@@H]1N[C@@H](C(=O)Nc2ccc(C(N)=O)cc2F)[C@H](c2cccc(Cl)c2F)[C@]12C(=O)Nc1cc(Cl)ccc12 [Example 54]
(II) CC(C)(C)C[C@@H]1N[C@@H](C(=O)Nc2ccc(C(N)=O)cc2)[C@H](c2cccc(Cl)c2F)[C@]12C(=O)Nc1cc(Br)ccc12 (racemic)
Exercise: # return whichever of I and II has the smaller pIC50 Indicate your choice by writing its label.
Solution: II

* * *

# Experimental Target: interaction between p53 and MDM2 proteins (Homo sapiens, UniProt Q00987)
# Sequence (Q00987 whole entry): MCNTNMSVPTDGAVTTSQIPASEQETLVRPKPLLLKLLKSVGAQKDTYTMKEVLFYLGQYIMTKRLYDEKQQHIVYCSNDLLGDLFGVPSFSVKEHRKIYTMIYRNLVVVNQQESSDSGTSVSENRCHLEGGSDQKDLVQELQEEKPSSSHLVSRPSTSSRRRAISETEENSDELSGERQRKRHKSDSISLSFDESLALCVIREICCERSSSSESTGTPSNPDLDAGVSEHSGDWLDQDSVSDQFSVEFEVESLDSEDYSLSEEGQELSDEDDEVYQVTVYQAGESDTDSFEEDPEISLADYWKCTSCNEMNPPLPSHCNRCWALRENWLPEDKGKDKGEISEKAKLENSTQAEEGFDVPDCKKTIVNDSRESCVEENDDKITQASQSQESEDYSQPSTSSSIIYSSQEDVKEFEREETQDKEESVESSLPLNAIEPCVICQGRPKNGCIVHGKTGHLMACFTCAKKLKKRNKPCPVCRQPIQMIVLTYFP
# Test Details: HTRF assay of inhibition of the p53-MDM2 interaction (GST-MDM2 / biotinylated p53 peptide)
# Assay Conditions: recombinant GST-tagged MDM2 and biotinylated p53 peptide, bsa:0.02%
# Procedure: The ability of the compounds to inhibit the interaction between p53 and MDM2 proteins was measured by an HTRF (homogeneous time-resolved fluorescence) assay in which recombinant GST-tagged MDM2 binds to a peptide that resembles the MDM2-interacting region of p53. […]
Assay Endpoint: IC50 (nM)

These recorded examples may help you get a feel for the data.
Molecule: CCOc1cc(C(N)=O)ccc1NC(=O)[C@@H]1N[C@@H](CC(C)(C)C)[C@@]2(C(=O)Nc3cc(Cl)ccc32)[C@H]1c1cccc(Cl)c1F (racemic)
Experimental Target: interaction between p53 and MDM2 proteins (Homo sapiens, UniProt Q00987)
IC50 [nM]: 14
//
Molecule: Cn1ccc(NC(=O)[C@@H]2N[C@@H](CC(C)(C)C)[C@@]3(C(=O)Nc4cc(Cl)ccc43)[C@H]2c2cccc(Cl)c2F)cc1=O (racemic)
Experimental Target: interaction between p53 and MDM2 proteins (Homo sapiens, UniProt Q00987)
IC50 [nM]: 17

(a) CC(C)(C)C[C@@H]1N[C@@H](C(=O)Nc2ccc(C#N)nc2)[C@H](c2cccc(Cl)c2F)[C@]12C(=O)Nc1cc(Cl)ccc12 (racemic)
(b) COC(=O)c1ccc(NC(=O)[C@@H]2N[C@@H](CC(C)(C)C)[C@@]3(C(=O)Nc4cc(Cl)ccc43)[C@H]2c2ccc(F)c(Cl)c2)c(OC)c1 (racemic)
(c) CC(C)(C)C[C@@H]1N[C@@H](C(=O)Nc2ccc(CCC(=O)O)cc2)[C@H](c2cccc(Cl)c2F)[C@]12C(=O)Nc1cc(Cl)ccc12 [Example 222]
Exercise: Put the entries in order of IC50, starting with the largest number. Provide the labels, sequenced as the question asks.
Solution: b, a, c
(b: 29 nM, a: 17 nM, c: 5 nM)

* * *

# Experimental Target: interaction between p53 and MDM2 proteins (Homo sapiens)
# Test Details: HTRF assay of inhibition of the p53-MDM2 interaction (GST-MDM2 / biotinylated p53 peptide)
# Assay Conditions: recombinant GST-tagged MDM2 and biotinylated p53 peptide, bsa:0.02%
pIC50: −log10 of the molar value.
Assay Endpoint: pIC50

Molecule: CC(C)(C)C[C@@H]1N[C@@H](C(=O)Nc2ccc(NCC(=O)O)cc2)[C@H](c2cccc(Cl)c2F)[C@]12C(=O)Nc1cc(Cl)ccc12 (racemic)
Value Observed: 7.80

(1) COc1cc(OCCCS(C)(=O)=O)ccc1NC(=O)[C@@H]1N[C@@H](CC(C)(C)C)[C@@]2(C(=O)Nc3cc(Cl)ccc32)[C@H]1c1cccc(Cl)c1F
(2) COC(=O)c1ccc(NC(=O)[C@@H]2N[C@@H](CC(C)(C)C)[C@@]3(C(=O)Nc4cc(Cl)ccc43)[C@H]2c2cccc(Cl)c2F)cc1Cl (racemic)
(3) COc1cc(OCCO)ccc1NC(=O)[C@@H]1N[C@@H](CC(C)(C)C)[C@@]2(C(=O)Nc3c2ccc(Cl)c3F)[C@H]1c1cccc(Cl)c1F (racemic)
(4) CC(=O)OCC(C)(C)C[C@@H]1N[C@@H](C(=O)Nc2ccc(C#N)cc2)[C@H](c2cccc(Cl)c2F)[C@]12C(=O)Nc1cc(Cl)ccc12 (racemic)
Exercise: Put the entries in order of pIC50, starting with the largest number. Provide the labels, sequenced as the question asks.
Solution: 1, 4, 2, 3

(1) CC(C)(C)C[C@@H]1N[C@@H](C(=O)Nc2ccc(C(N)=O)cc2)[C@H](c2cccc(Cl)c2F)[C@]12C(=O)Nc1cc(Cl)cc(F)c12 [Example 74]
(2) COC(=O)c1cc(OC)c(NC(=O)[C@@H]2N[C@@H](CC(C)(C)C)[C@@]3(C(=O)Nc4cc(Cl)ccc43)[C@H]2c2cccc(Cl)c2F)cc1F (racemic)
(3) CC(C)(C)C[C@@H]1N[C@@H](C(=O)Nc2ccc(C(N)=O)cc2)[C@H](c2cccc(Cl)c2F)[C@]12C(=O)Nc1cc(Cl)cc(F)c12 (racemic) [Example 73]
Exercise: Sort (3 molecules) by pIC50: min first. Provide the labels, sequenced as the question asks.
Solution: 2, 3, 1
(2: 7.70, 3: 7.96, 1: 8.22)

(a) COc1cc(C(=O)O)ccc1NC(=O)[C@@H]1N[C@@H](CC(C)(C)C)[C@@]2(C(=O)Nc3cc(Cl)ccc32)[C@H]1c1cccc(Cl)c1 (racemic)
(b) CC(C)(C)C[C@@H]1N[C@@H](C(=O)Nc2ccc(I)cc2F)[C@H](c2cccc(Cl)c2F)[C@]12C(=O)Nc1cc(Cl)ccc12 (racemic)
(c) CC(C)(C)C[C@@H]1N[C@@H](C(=O)Nc2ccc(CCC(=O)O)cc2)[C@H](c2cccc(Cl)c2F)[C@]12C(=O)Nc1cc(Cl)ccc12 (racemic) [Example 209]
Exercise: Sort (3 molecules) by pIC50: min first. Provide the labels, sequenced as the question asks.
Solution: b, a, c
(b: 7.70, a: 8.05, c: 8.40)

(P) CC(C)(C)C[C@@H]1N[C@@H](C(=O)Nc2ccc(C#N)cc2)[C@H](c2cccc(Cl)c2F)[C@]12C(=O)Nc1cc(Cl)ccc12 (racemic) [Example 7]
(Q) CC(C)(C)C[C@@H]1N[C@@H](C(=O)Nc2ccc(C#N)cc2)[C@H](c2cccc(Cl)c2F)[C@]12C(=O)Nc1cc(Cl)ccc12 [Example 137]
(R) CC(C)(CO)C[C@@H]1N[C@@H](C(=O)Nc2ccc(C(N)=O)cc2)[C@H](c2cccc(Cl)c2F)[C@]12C(=O)Nc1cc(Cl)ccc12 (racemic)
Exercise: Sort (3 molecules) by pIC50: min first. Provide the labels, sequenced as the question asks.
Solution: P, R, Q
(P: 7.85, R: 8.05, Q: 8.30)

* * *

# Experimental Target: interaction between p53 and MDM2 proteins (Homo sapiens)
# Test Details: HTRF assay of inhibition of the p53-MDM2 interaction (GST-MDM2 / biotinylated p53 peptide)
# Assay Conditions: recombinant GST-tagged MDM2 and biotinylated p53 peptide, bsa:0.02%
Assay Endpoint: IC50 (nM)

Compound: CC(C)(C)C[C@@H]1N[C@@H](C(=O)Nc2ccc(C(N)=O)nc2)[C@H](c2cccc(Cl)c2F)[C@]12C(=O)Nc1cc(Cl)ccc12 (racemic)
Experimental Target: interaction between p53 and MDM2 proteins (Homo sapiens)
Quantity Unit: nM
IC50: 7
//
Compound: CC(C)(C)C[C@@H]1N[C@@H](C(=O)Nc2ccc(C#N)cc2F)[C@H](c2cccc(Cl)c2F)[C@]12C(=O)Nc1cc(Cl)ccc12 (racemic)
Experimental Target: interaction between p53 and MDM2 proteins (Homo sapiens)
Quantity Unit: nM
IC50: 12
//
Compound: CC(C)(C)C[C@@H]1N[C@@H](C(=O)Nc2ccc(C(N)=O)s2)[C@H](c2cccc(Cl)c2F)[C@]12C(=O)Nc1cc(Cl)ccc12 (racemic)
Experimental Target: interaction between p53 and MDM2 proteins (Homo sapiens)
Quantity Unit: nM
IC50: 8

(I) CC(C)(C)C[C@@H]1N[C@@H](C(=O)Nc2ccn(CC(C)(C)O)n2)[C@H](c2cccc(Cl)c2F)[C@]12C(=O)Nc1cc(Cl)ccc12 (racemic)
(II) CCOC(=O)c1csc(NC(=O)[C@@H]2N[C@@H](CC(C)(C)C)[C@@]3(C(=O)Nc4cc(Cl)ccc43)[C@H]2c2cccc(Cl)c2F)n1 (racemic)
Exercise: # return whichever of I and II has the smaller IC50 Indicate your choice by writing its label.
Solution: I

(1) COC(=O)c1cc2cc(NC(=O)[C@@H]3N[C@@H](CC(C)(C)C)[C@@]4(C(=O)Nc5cc(Cl)ccc54)[C@H]3c3cccc(Cl)c3F)ccc2s1 (racemic)
(2) COc1cc(C(N)=O)ccc1NC(=O)[C@@H]1N[C@@H](CC(C)(C)C)[C@@]2(C(=O)Nc3cc(Cl)cc(F)c32)[C@H]1c1cccc(Cl)c1F [Example 77]
(3) Cn1c(NC(=O)[C@@H]2N[C@@H](CC(C)(C)C)[C@@]3(C(=O)Nc4cc(Cl)ccc43)[C@H]2c2cccc(Cl)c2F)ccc1C(=O)OC(C)(C)C (racemic)
(4) CC(C)(C)C[C@@H]1N[C@@H](C(=O)Nc2ccccc2)[C@H](c2cccc(Cl)c2F)[C@]12C(=O)Nc1cc(Cl)ccc12
Exercise: Put the entries in order of IC50, starting with the largest number. Provide the labels, sequenced as the question asks.
Solution: 3, 1, 4, 2
(3: 55 nM, 1: 18 nM, 4: 11 nM, 2: 5 nM)

(P) COc1cc(C#N)ccc1NC(=O)[C@@H]1N[C@@H](CC(C)(C)C)[C@@]2(C(=O)Nc3cc(Cl)ccc32)[C@H]1c1cccc(Cl)c1 (racemic)
(Q) COc1cc(C(N)=O)ccc1NC(=O)[C@@H]1N[C@@H](CC(C)(C)C)[C@@]2(C(=O)Nc3cc(Cl)ccc32)[C@H]1c1cccc(Cl)c1F [Example 60]
(R) COc1cc(C#N)ccc1NC(=O)[C@@H]1N[C@@H](CC(C)(C)C)[C@@]2(C(=O)Nc3cc(Cl)cc(F)c32)[C@H]1c1cccc(Cl)c1F (racemic)
Exercise: Put the entries in order of IC50, starting with the largest number. Provide the labels, sequenced as the question asks.
Solution: R, P, Q
(R: 20 nM, P: 14 nM, Q: 5 nM)

(I) COc1cc(S(=O)(=O)N2CCOCC2)ccc1NC(=O)[C@@H]1N[C@@H](CC(C)(C)C)[C@@]2(C(=O)Nc3cc(Cl)ccc32)[C@H]1c1cccc(Cl)c1F (racemic) [Example 138]
(II) COc1cc(C#N)ccc1NC(=O)[C@@H]1N[C@@H](CC(C)(C)C)[C@@]2(C(=O)Nc3c2ccc(Cl)c3F)[C@H]1c1cccc(Cl)c1F (racemic)
(III) CC(C)(C)C[C@@H]1N[C@@H](C(=O)Nc2ccc(C(N)=O)cc2)[C@H](c2cccc(Cl)c2)[C@]12C(=O)Nc1cc(Cl)ccc12 [Example 65B]
Exercise: Sort (3 compounds) by IC50: min first. Provide the labels, sequenced as the question asks.
Solution: III, I, II
(III: 6 nM, I: 13 nM, II: 21 nM)

(A) CC(C)(C)C[C@@H]1N[C@@H](C(=O)Nc2ccc(C(N)=O)cc2)[C@H](c2ccc(F)c(Cl)c2)[C@]12C(=O)Nc1cc(Cl)ccc12 (racemic)
(B) CCOc1cc(C(=O)OC)ccc1NC(=O)[C@@H]1N[C@@H](CC(C)(C)C)[C@@]2(C(=O)Nc3cc(Cl)ccc32)[C@H]1c1cccc(Cl)c1F (racemic)
(C) COc1cc(OCC[S+](C)[O-])ccc1NC(=O)[C@@H]1N[C@@H](CC(C)(C)C)[C@@]2(C(=O)Nc3cc(Cl)ccc32)[C@H]1c1cccc(Cl)c1F (single isomer, unassigned)
Exercise: Sort (3 compounds) by IC50: min first. Provide the labels, sequenced as the question asks.
Solution: C, B, A
(C: 6 nM, B: 10 nM, A: 15 nM)
